System: TGF-β-stimulated SMAD3 phosphorylation in BEAS-2B cells
Assay: Cellular ALK5 potency assay, inhibition of TGF-β stimulated pSMAD3 formation in BEAS-2B cells
Type: cell-based
Details: Homo sapiens, inhibition of TGF-β (10 ng/mL) stimulated pSMAD3 formation, 1 hour compound incubation, read-out: BEAS2B pIC50 (converted)
Hi there, I'd appreciate the recorded IC50 for every entry that follows.

Input: IC50 for O=C(O)[C@H]1CN(c2cnc3ccc(-c4nc[nH]c4-c4cc(Cl)ccc4F)nc3c2)CCN1 ?
Output: 200 to 1260 nM

Input: IC50 for O=C(O)CC1CNCCN1c1cnc2ccc(-c3nc[nH]c3-c3cc(Cl)ccc3F)nc2c1 (stereo not shown) ?
Output: 200 to 1260 nM

Input: IC50 for CN1CCC(N(C)c2cnc3ccc(-c4c[nH]nc4-c4cc(Cl)c(F)cc4F)nc3c2)CC1 ?
Output: 25.1 to 158 nM

Input: IC50 for Fc1ccc(Cl)cc1-c1[nH]cnc1-c1ccc2ncc(N3CCCNCC3)cc2n1 ?
Output: 25.1 to 158 nM

Input: IC50 for CNC1CN(c2cnc3ccc(-c4c[nH]nc4-c4cc(Cl)c(F)cc4F)nc3c2)C1 ?
Output: ≤ 20 nM

Input: IC50 for CNC1CCN(c2cnc3ccc(-c4nc[nH]c4-c4cc(Cl)ccc4F)nc3c2)CC1 ?
Output: 25.1 to 158 nM

Input: IC50 for Fc1ccc(Cl)cc1-c1[nH]cnc1-c1ccc2ncc(N3CCNCC3)cc2c1 ?
Output: 25.1 to 158 nM

Input: IC50 for Fc1cc(F)c(-c2n[nH]cc2-c2ccc3ncc(NCCN4CCCC4)cc3n2)cc1Cl ?
Output: 25.1 to 158 nM

Input: IC50 for COCc1cccc(-c2n[nH]cc2-c2ccc3ncc(-c4cnn(CCN)c4)cc3n2)c1 ?
Output: 25.1 to 158 nM

Input: IC50 for Fc1ccc(Cl)cc1-c1n[nH]cc1-c1ccc2ncc(-c3ncc4n3CCN4)cc2n1 ?
Output: 200 to 1260 nM

Input: IC50 for CNCCn1cc(-c2cnc3ccc(-c4nc[nH]c4-c4cc(Cl)ccc4F)nc3c2)cn1 ?
Output: 25.1 to 158 nM

Input: IC50 for CN1CCN(C2CCN(c3cnc4ccc(-c5c[nH]nc5-c5cc(Cl)ccc5F)nc4c3)CC2)CC1 ?
Output: ≤ 20 nM

Input: IC50 for CN(CC1CNC1)c1cnc2ccc(-c3nc[nH]c3-c3cc(Cl)c(F)cc3F)nc2c1 ?
Output: 25.1 to 158 nM

Input: IC50 for COCc1cccc(-c2n[nH]cc2-c2ccc3ncc(-c4cnn(CC5CNC5)c4)cc3n2)c1 ?
Output: 25.1 to 158 nM

Input: IC50 for CN1CCC(Nc2cnc3ccc(-c4c[nH]nc4-c4cc(Cl)ccc4F)nc3c2)CC1 ?
Output: ≤ 20 nM

Input: IC50 for Fc1cc(F)c(-c2n[nH]cc2-c2ccc3ncc(NCC4CCCN4)cc3n2)cc1Cl (racemic) ?
Output: 25.1 to 158 nM

====

Molecular target: recombinant human ALK5 (TGF-βR1) protein (Homo sapiens)
Sequence (P36897 34-503): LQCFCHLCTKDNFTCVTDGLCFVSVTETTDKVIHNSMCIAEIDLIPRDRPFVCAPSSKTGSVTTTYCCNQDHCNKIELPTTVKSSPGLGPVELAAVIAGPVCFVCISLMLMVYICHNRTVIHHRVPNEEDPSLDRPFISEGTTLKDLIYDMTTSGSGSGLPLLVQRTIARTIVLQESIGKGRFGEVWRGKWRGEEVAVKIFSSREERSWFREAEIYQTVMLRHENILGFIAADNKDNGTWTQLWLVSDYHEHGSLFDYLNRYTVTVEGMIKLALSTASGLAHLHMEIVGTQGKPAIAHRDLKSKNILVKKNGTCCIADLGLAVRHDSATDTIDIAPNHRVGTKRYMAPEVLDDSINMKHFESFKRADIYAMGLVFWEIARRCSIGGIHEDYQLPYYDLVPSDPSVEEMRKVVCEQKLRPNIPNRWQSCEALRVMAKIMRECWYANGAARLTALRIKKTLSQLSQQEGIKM
Assay: Biochemical ALK5 (TGF-βR1) assay to measure pKi (LANCE Ultra ULight kinase assay)
Settings: apparent pKi, converted from pIC50 using the Cheng-Prusoff equation
Hi there, I'd appreciate the recorded Ki for every entry that follows.

Input: # returns recorded Ki (system: recombinant human ALK5 (TGF-βR1) protein (Homo sapiens)) for CNC(=O)C1CN(c2cnc3ccc(-c4c[nH]nc4-c4cc(Cl)ccc4F)nc3c2)CCN1C (racemic) [Compound 1-77]
Output: 39.8 to 316 pM

Input: # returns recorded Ki (system: recombinant human ALK5 (TGF-βR1) protein (Homo sapiens)) for CCN1CCN(CCNc2cnc3ccc(-c4c[nH]nc4-c4cc(Cl)ccc4F)nc3c2)CC1
Output: 39.8 to 316 pM

Input: # returns recorded Ki (system: recombinant human ALK5 (TGF-βR1) protein (Homo sapiens)) for CN1CCN(C2CCN(c3cnc4ccc(-c5c[nH]nc5-c5ccccc5F)nc4c3)CC2)CC1
Output: 398 to 3160 pM

Input: # returns recorded Ki (system: recombinant human ALK5 (TGF-βR1) protein (Homo sapiens)) for Fc1ccc(Cl)cc1-c1n[nH]cc1-c1ccc2ncc(-c3cnn(CC4CNC4)c3)cc2n1
Output: 39.8 to 316 pM

Input: # returns recorded Ki (system: recombinant human ALK5 (TGF-βR1) protein (Homo sapiens)) for CN1CCN(C2CCN(c3cnc4ccc(-c5nc[nH]c5-c5cc(Cl)ccc5F)nc4c3)CC2)CC1
Output: 39.8 to 316 pM

Input: # returns recorded Ki (system: recombinant human ALK5 (TGF-βR1) protein (Homo sapiens)) for O=C(OCc1ccccc1)N1CCC2(CCN(c3cnc4ccc(-c5c[nH]nc5-c5cc(Cl)ccc5F)nc4c3)C2)C1 (stereo not drawn)
Output: 3980 to 31600 pM

Input: # returns recorded Ki (system: recombinant human ALK5 (TGF-βR1) protein (Homo sapiens)) for CN(CC1CNC1)c1cnc2ccc(-c3c[nH]nc3-c3cc(Cl)ccc3F)nc2c1
Output: 39.8 to 316 pM

Input: # returns recorded Ki (system: recombinant human ALK5 (TGF-βR1) protein (Homo sapiens)) for CN(C)C1CCN(c2cnc3ccc(-c4nc[nH]c4-c4cc(Cl)ccc4F)cc3c2)C1 (racemic)
Output: 39.8 to 316 pM

Input: # returns recorded Ki (system: recombinant human ALK5 (TGF-βR1) protein (Homo sapiens)) for CC(C)N1CC2CN(c3cnc4ccc(-c5c[nH]nc5-c5cc(Cl)ccc5F)nc4c3)C2C1 (stereo not drawn)
Output: 3980 to 31600 pM

Input: # returns recorded Ki (system: recombinant human ALK5 (TGF-βR1) protein (Homo sapiens)) for O=C(NCc1ccccc1)[C@H]1CN(c2cnc3ccc(-c4c[nH]nc4-c4cc(Cl)ccc4F)nc3c2)CCN1
Output: 398 to 3160 pM

Input: # returns recorded Ki (system: recombinant human ALK5 (TGF-βR1) protein (Homo sapiens)) for CC1(C)CCCN1CCNc1cnc2ccc(-c3c[nH]nc3-c3ccc(F)c(F)c3)nc2c1
Output: 3980 to 31600 pM

Input: # returns recorded Ki (system: recombinant human ALK5 (TGF-βR1) protein (Homo sapiens)) for CN1CCN(c2ccc(Nc3cnc4ccc(-c5nc[nH]c5-c5cc(Cl)ccc5F)nc4c3)nc2)CC1
Output: 39.8 to 316 pM

Input: # returns recorded Ki (system: recombinant human ALK5 (TGF-βR1) protein (Homo sapiens)) for CN1CC=C(c2cnc3ccc(-c4c[nH]nc4-c4cc(Cl)ccc4F)nc3c2)C1
Output: ≤ 31.6 pM

Input: # returns recorded Ki (system: recombinant human ALK5 (TGF-βR1) protein (Homo sapiens)) for CNCCn1cc(-c2cnc3ccc(-c4c(-c5cc(Cl)ccc5F)nc5ccccn45)cc3c2)cn1
Output: 39.8 to 316 pM

Input: # returns recorded Ki (system: recombinant human ALK5 (TGF-βR1) protein (Homo sapiens)) for Fc1cc(F)c(-c2n[nH]cc2-c2ccc3ncc(-c4ncn5c4CNCC5)cc3n2)cc1Cl
Output: 39.8 to 316 pM
